Numbers sourced from paper PMC4627342.

test: in vivo; details: both, NIH, mouse, in vivo, iv, 18 mg/kg
measuredEndpoint: Vd (L)

[[record]]
compound = "CC(=O)O[C@H]1C(=O)[C@@]2(C)[C@H]([C@H](OC(=O)c3ccccc3)[C@]3(O)C[C@H](OC(=O)[C@H](O)[C@@H](NC(=O)c4ccccc4)c4ccccc4)C(C)=C1C3(C)C)[C@]1(OC(C)=O)CO[C@@H]1C[C@@H]2O [Paclitaxel, paclitaxel]"
value = 0.015


----------
experiment: in vivo; details: both, NIH, mouse, plasma, iv, 10 mg/kg
measuredEndpoint: half-life (h)

[[record]]
molecule = "COc1cccc2c1C(=O)c1c(O)c3c(c(O)c1C2=O)C[C@@](O)(C(=O)CO)C[C@@H]3O[C@H]1C[C@H](N)[C@H](O)[C@H](C)O1 [Doxorubicin]"
measuredendpoint = "half-life"
unittag = "h"
value = 5.2


----------
assay: in vivo; conditions: both, NIH, mouse, in vivo, iv, 10 mg/kg
measuredEndpoint: AUC(0-inf) (ng·h/mL)

[[record]]
compound = "COc1cccc2c1C(=O)c1c(O)c3c(c(O)c1C2=O)C[C@@](O)(C(=O)CO)C[C@@H]3O[C@H]1C[C@H](N)[C@H](O)[C@H](C)O1 [Doxorubicin]"
unittag = "ng·h/mL"
value = 2960

